IC50 values by entry
- assay target: FAAH Human recombinant (Homo sapiens)
- Sequence (O00519 1-579): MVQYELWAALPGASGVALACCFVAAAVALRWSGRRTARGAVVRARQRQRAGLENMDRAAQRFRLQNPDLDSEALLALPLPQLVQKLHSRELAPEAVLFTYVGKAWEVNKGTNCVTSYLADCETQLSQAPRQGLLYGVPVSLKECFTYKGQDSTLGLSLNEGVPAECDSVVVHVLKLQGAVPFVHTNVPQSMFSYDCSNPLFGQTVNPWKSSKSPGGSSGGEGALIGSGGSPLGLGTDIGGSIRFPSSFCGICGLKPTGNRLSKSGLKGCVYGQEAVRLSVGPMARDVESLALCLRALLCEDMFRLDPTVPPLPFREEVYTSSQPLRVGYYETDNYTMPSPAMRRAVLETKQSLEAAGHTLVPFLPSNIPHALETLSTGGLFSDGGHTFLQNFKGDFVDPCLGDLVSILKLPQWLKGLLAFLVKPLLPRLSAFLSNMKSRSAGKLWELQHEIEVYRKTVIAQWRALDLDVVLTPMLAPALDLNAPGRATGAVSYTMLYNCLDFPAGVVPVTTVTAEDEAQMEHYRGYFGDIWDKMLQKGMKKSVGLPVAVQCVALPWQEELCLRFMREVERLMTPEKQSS
- measurement notes: FAAH inhibition assay (fluorometric, AMC-AA substrate)
- setup conditions: human recombinant FAAH; mean ± SEM; i: inactive

# annotated cases, reported IC50 shown
O=C(O)COc1ccc(Cc2ccccc2)cc1 [Compound 5, 4-benzyl-phenoxyacetic acid]
40.2 µM
O=C(O)C(Cc1ccccc1)Oc1ccc(/C=C\c2ccccc2)cc1 (centres unmarked) [Compound 19]
> 100 µM

Recall and state the measured IC50 for CCCCCCCN(CCc1ccc(O[C@@H](C)C(=O)O)cc1)c1nc2ccccc2o1 [Compound 25] .
~100 µM

Given the compound O=C(O)COc1ccc(CCc2ccccc2)cc1 [Compound 15, 4-phenethyl-phenoxyacetic acid] , write its reported IC50.
~100 µM

Determine its reported IC50: O=C(/C=C/c1ccccc1)O[C@@H](Cc1ccccc1)C(=O)O [(S)-28]
> 100 µM

Identify measured IC50 corresponding to O=C(O)C(Cc1ccccc1)Oc1ccc(Cc2ccccc2)cc1 (centres unmarked) [Compound 14]
> 100 µM

Please report the measured IC50 for CCCc1c(OCCCOc2ccc(OCC(=O)O)cc2)ccc(C(C)=O)c1O [Compound 3, L165,041, reference compound]
> 100 µM

Assign IC50 to the following record: Cc1cccc(Nc2cc(Cl)nc(SCC(=O)O)n2)c1C [Compound 2, Wy 14,643, reference compound]
> 100 µM
